Biological target: SALL4 ZFC4 R900W (HT-SELEX) (Mus musculus, UniProt Q8BX22 870-940, R900W)
Sequence: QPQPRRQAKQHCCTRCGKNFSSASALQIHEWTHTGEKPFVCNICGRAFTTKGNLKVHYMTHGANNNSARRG
Test: HT-SELEX; high values mean tight binding
Conditions: protein: recombinant; vector His6-GST; dsDNA, one strand shown
OBSERVATION TYPE: binding signal (fold-change vs cycle 0)

# POLYMER SEQUENCE, UNIT OF MEASURE, OBSERVED MEASUREMENT
rows = [
    ("GAACTA", "fold-change vs cycle 0", 1.48),
    ("ACCGCG", "fold-change vs cycle 0", 0.099),
    ("GAAAGA", "fold-change vs cycle 0", 1.52),
]

Where do these numbers come from? They come from paper PMC9838217.
